Ref: paper PMC5303205

Assay: Multi-component pharmacokinetics of AAs in rats after oral administration of AF and HAF extracts (HPLC-MS/MS of plasma)
Set-up: species or system Sprague–Dawley (SD) rats
Settings: Sprague-Dawley, rat, in vivo, 3 mg/kg, AF extract, low dose (3.0 mg/kg as AA I), analyte dose mg/kg: AA I 3.0, AA II 0.21, AA C 1.42, AA D 1.60, 7-OH AA I 2.33, n = 6
Exercise: state measured AUC(0-inf) for each of the molecules provided.

1. O=C(O)c1cc2c(c3c1c([N+](=O)[O-])cc1ccccc13)OCO2 [AA II]; 3960 ng·h/mL
2. COc1cccc2c1cc([N+](=O)[O-])c1c(C(=O)O)cc3c(c12)OCO3 [AA I]; 6080 ng·h/mL
3. COc1c(O)ccc2c1cc([N+](=O)[O-])c1c(C(=O)O)cc3c(c12)OCO3 [7-OH AA I]; 602 ng·h/mL

Let us move to another entry and its AUC(0-inf).
Documented AUC(0-inf) of COc1cc(O)cc2c1cc([N+](=O)[O-])c1c(C(=O)O)cc3c(c12)OCO3 [AA D] : 194 ng·h/mL

---

Test: Stability of AAs in rat plasma (QC samples, HPLC-MS/MS)
Type: in vitro ADME
Conditions: rat plasma stored at –20 °C for 14 days; middle QC conc ng/mL: AA I 457.5, AA II 400, AA C 372.5, AA D 460, 7-OH AA I 410; n = 5
ATTRIBUTE_MEASURED: Long-term stability (RSD/%)
Numbers only, in %.

1. COc1cc(O)cc2c1cc([N+](=O)[O-])c1c(C(=O)O)cc3c(c12)OCO3; 2.5
2. O=C(O)c1cc2c(c3c1c([N+](=O)[O-])cc1ccccc13)OCO2; 8.2
3. COc1c(O)ccc2c1cc([N+](=O)[O-])c1c(C(=O)O)cc3c(c12)OCO3; 6.4

Let us move to another entry and its Long-term stability (RSD/%).
Documented Long-term stability (RSD/%) of `COc1cccc2c1cc([N+](=O)[O-])c1c(C(=O)O)cc3c(c12)OCO3` : 6.9

---

Assay: Multi-component pharmacokinetics of AAs in rats after oral administration of AF and HAF extracts (HPLC-MS/MS of plasma)
Design: species or system Sprague–Dawley (SD) rats
Settings: Sprague-Dawley, rat, in vivo, 15 mg/kg, HAF extract, high dose (15.0 mg/kg as AA I), analyte dose mg/kg: AA I 15.0, AA II 1.29, AA C 7.66, AA D 7.56, 7-OH AA I 12.41, n = 6, read-out: t 1/2z (converted)
Exercise: state measured half-life for each of the molecules provided.
One number for each entry, in h.

1) O=C(O)c1cc2c(c3c1c([N+](=O)[O-])cc1ccccc13)OCO2; 5.39
2) COc1cc(O)cc2c1cc([N+](=O)[O-])c1c(C(=O)O)cc3c(c12)OCO3; 2.4
3) COc1c(O)ccc2c1cc([N+](=O)[O-])c1c(C(=O)O)cc3c(c12)OCO3; 2.94

Let us move to another entry and its half-life.
Documented half-life of `COc1cccc2c1cc([N+](=O)[O-])c1c(C(=O)O)cc3c(c12)OCO3` : 5.32

---

Exercise: state measured Freeze-thaw stability (RSD/%) for each of the compounds provided.
Experiment: Stability of AAs in rat plasma (QC samples, HPLC-MS/MS)
Assay type: in vitro ADME
Details: rat plasma, three freeze-thaw cycles (–20 °C 24 h, thawed at room temperature); middle QC conc ng/mL: AA I 457.5, AA II 400, AA C 372.5, AA D 460, 7-OH AA I 410; n = 5
Numbers only, in %.

1. COc1cc(O)cc2c1cc([N+](=O)[O-])c1c(C(=O)O)cc3c(c12)OCO3 [AA D]; 8.4
2. COc1cccc2c1cc([N+](=O)[O-])c1c(C(=O)O)cc3c(c12)OCO3 [AA I]; 10.3
3. O=C(O)c1cc2c(c3c1c([N+](=O)[O-])cc1ccccc13)OCO2 [AA II]; 10.2

Let us move to another entry and its Freeze-thaw stability (RSD/%).
Documented Freeze-thaw stability (RSD/%) of COc1c(O)ccc2c1cc([N+](=O)[O-])c1c(C(=O)O)cc3c(c12)OCO3 [7-OH AA I] : 12.3

---

Exercise: state measured Tmax for each of the molecules provided.
Assay: Multi-component pharmacokinetics of AAs in rats after oral administration of AF and HAF extracts (HPLC-MS/MS of plasma)
Parameters: species or system Sprague–Dawley (SD) rats
Settings: Sprague-Dawley, rat, in vivo, 15 mg/kg, AF extract, high dose (15.0 mg/kg as AA I), analyte dose mg/kg: AA I 15.0, AA II 1.05, AA C 7.09, AA D 8.00, 7-OH AA I 11.66, n = 6
Method: An aliquot (100 μl) of rat plasma was spiked with 10.0 μL IS, and vortexed with 300 μL acetic ether for 10 s before the supernatant was transferred into centrifuge tube. The extraction was repeated with 200 μL acetic ether. […] After the oral administration of AF and HAF extracts, rat plasma samples were prepared and analyzed as described above. Five main AAs can be detected in rat blood with the proposed HPLC-MS/MS method. […]
Give bare numbers, in min.

// each molecule listed below needs its Tmax
1. COc1cccc2c1cc([N+](=O)[O-])c1c(C(=O)O)cc3c(c12)OCO3
2. COc1cc(O)cc2c1cc([N+](=O)[O-])c1c(C(=O)O)cc3c(c12)OCO3
3. COc1c(O)ccc2c1cc([N+](=O)[O-])c1c(C(=O)O)cc3c(c12)OCO3
4. O=C(O)c1cc2c(c3c1c([N+](=O)[O-])cc1ccccc13)OCO2

Completion:
[41.4, 38.4, 30, 110]

---

Assay: Multi-component pharmacokinetics of AAs in rats after oral administration of AF and HAF extracts (HPLC-MS/MS of plasma)
Set-up: species or system Sprague–Dawley (SD) rats
Settings: Sprague-Dawley, rat, in vivo, 8 mg/kg, AF extract, mid dose (8.0 mg/kg as AA I), analyte dose mg/kg: AA I 8.0, AA II 0.56, AA C 3.78, AA D 4.26, 7-OH AA I 6.22, n = 6
ATTRIBUTE_MEASURED: Tmax

Examples with answers:
1. COc1cc(O)cc2c1cc([N+](=O)[O-])c1c(C(=O)O)cc3c(c12)OCO3; 33.6 min
2. COc1c(O)ccc2c1cc([N+](=O)[O-])c1c(C(=O)O)cc3c(c12)OCO3; 43.2 min
3. O=C(O)c1cc2c(c3c1c([N+](=O)[O-])cc1ccccc13)OCO2; 79.8 min

Documented Tmax of `COc1cccc2c1cc([N+](=O)[O-])c1c(C(=O)O)cc3c(c12)OCO3` : 33.6 min
